Please respond with reported Residual turnover [%] for every item in the list.
test system: HPPD polypeptides; experiment: coupled HPPD activity assay: turnover and residual turnover in crude extracts; format: biochemical, Pseudomonas fluorescens; conditions: 100 μM Cmpd. 1; signal change with inhibitor divided by signal change without inhibitor
Numbers only, in %.

INSERT INTO assay_data (molecule, quantitative_result) VALUES
  ('16 (protein, mutant HPPD polypeptide) MADLYENPMGLMGFEFIEFASPTPGTLEPIFEIMGFTKVATHRSKNVHLYRQGEINLILNNEPNSIASYFAAEHGPSVCGMAFRVKDSQKAYNRALELGAQPIHIDTGPMELNLPAIKGIGGAPLYLIDRFGEGSSIYDIDFVYLEGVERNPVGAGLKVIDHLTHNVYRGRMVYWANFYEKLFNFREARYFDIKGEYTGLTSKAMSAPDGMIRIPLNEESSKGAGQIEEFLMQFNGEGIQHVAFLTDDLVKTWDALKKIGMRFMTAPSDNYYEMLEGRLPDHGEPVDQLQARGILLDGSSVEGDKRLLLQIFSETLMGPVFFEFIQRKGDDGFGPDSFKVLFESVERDQVRRGVLTAD', 46);

Then this molecule:
# lookup: Residual turnover [%] of 37 (protein, mutant HPPD polypeptide) MADLYENPMGLMGFEFIEFASPTPGTLEPIFEIMGFTKVATHRSKNVHLYRQGEINLILNNEPNSIASYFAAEHGPSVCGMAFRVKDSQKAYNRALELGAQPIHIDTGPMELNLPAIKGIGGAPLYLIDRFGEGSSIYDIDFVYLEGVERNPVGAGLKVIDHLTHNVYRGRMVYWANFYEKLFNFREARYFDIKGEYTGLTSKAMSAPDGMIRIPLNEESSKGAGQIEEFLMQFNGEGIQHVAFLTDDLVKTWDALKKIGMRFMTAPSDNYYEMLEGRLPDHGEPVDQLQARGILLDGSSVEGDKRLLLQIFSETLMGPVFFEFIQRKGDDGFGPHSFKVLFESVERDQVRRGVLTAD
50
